# Tested on: HT-29
# assay.notes: Concentration required to inhibit 50% growth of human colon carcinoma cell line (HT-29)
# Assay type: functional, cell-based
property.name: IC50 (nM)
Form entry: value (nM) — number only.

Recorded results for 4 compounds are shown here.
CC[C@@]1(O)C(=O)OCc2c1cc1n(c2=O)Cc2c-1nc1cnc(Br)cc1c2C : 1
CC[C@@]1(O)C(=O)OCc2c1cc1n(c2=O)Cc2c-1nc1cnc(CN)cc1c2C : 123
CCOC(=O)c1cc2c(CC)c3c(nc2cn1)-c1cc2c(c(=O)n1C3)COC(=O)[C@]2(O)CC : 26
CCc1c2c(nc3cnc(Br)cc13)-c1cc3c(c(=O)n1C2)COC(=O)[C@]3(O)CC : 7

Task: Annotate the compound CCc1c2c(nc3cnc(C#CCN)cc13)-c1cc3c(c(=O)n1C2)COC(=O)[C@]3(O)CC with its measured IC50.
Result: 351

Task: Query IC50 for CCc1c2c(nc3cnc(C#N)cc13)-c1cc3c(c(=O)n1C2)COC(=O)[C@]3(O)CC
Result: 17
